Data credit: patent US20250277029A1

Quick reference for 50.0 nM Empty Nanodisc binding (relative to 10D10N35Y) among some binders
- assayTarget: T1, empty-ND (nanodisc without CB1)
- T1 construct: its only protein is the nanodisc scaffold; also called Empty Nanodisc
- assayComment: flow cytometry, yeast-displayed IgG, binding/display ratio

What value of 50.0 nM Empty Nanodisc binding (relative to 10D10N35Y) has been reported for the following binder? LIBC528141-1 (antibody, V domains shown) VH: QVQLQESGPGLVKPSQTLSLTCTVSGGSIRRGGDYWSWIRQHPGKGLEWIGHVYQTGSTKYNPRFKGRATISVNTYKNQFSLKLSSVTAADTAVYYCARDYDILTGYSYYYYGMDVWGQGTTVTVSS VL: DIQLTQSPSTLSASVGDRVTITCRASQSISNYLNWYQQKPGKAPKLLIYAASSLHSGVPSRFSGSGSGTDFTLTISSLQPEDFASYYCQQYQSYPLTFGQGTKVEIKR
0.49 fold

What value of 50.0 nM Empty Nanodisc binding (relative to 10D10N35Y) has been reported for the following binder? LIBC527997-1 (antibody, IgG1, V domains shown) VH: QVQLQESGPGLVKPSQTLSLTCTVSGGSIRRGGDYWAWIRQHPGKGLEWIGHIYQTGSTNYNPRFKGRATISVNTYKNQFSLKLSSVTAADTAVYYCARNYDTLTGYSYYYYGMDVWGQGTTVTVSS VL: DIQMTQSPSSLSASVGDRVTITCRASQSISNYLNWYQQKPGKAPKLLIYAASSLHSGVPSRFSGSGSGTDFTLTISSLQPEDFASYYCQQYQSYPLTFGQGTKVEIKR
0.44 fold

Next:
What value of 50.0 nM Empty Nanodisc binding (relative to 10D10N35Y) has been reported for the following binder? LIBC527879-1 (antibody, V domains shown) VH: QVQLQESGPGLVKPSQTLSLTCTVSGGSIRRGGDYWGWIRQHPGKGLEWIGHIYQSGSTNYNPKLKSRATISVDTYKNQFSLKLSSVTAADTAVYYCARDYDIFTGYSYYYYGMDVWGQGTTVTVSS VL: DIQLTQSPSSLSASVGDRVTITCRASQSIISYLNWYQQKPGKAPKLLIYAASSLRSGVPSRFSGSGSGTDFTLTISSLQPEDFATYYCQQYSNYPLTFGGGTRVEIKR
0.73 fold
